Assay: Displacement of ethidium from poly[d(G-C)]-poly[d(G-C)] DNA (unknown origin) by fluorimetric method
EXPERIMENTAL_ENDPOINT: C50 (µM)
Give the value in µM but do not write µM after it.

Exercise: What measured C50 goes with C[n+]1ccc(Nc2ccc(NC(=O)/C=C/c3ccc(Nc4cc[n+](C)c5ccc(N)cc45)cc3)cc2)cc1.Cc1ccc(S(=O)(=O)[O-])cc1.Cc1ccc(S(=O)(=O)[O-])cc1 ?
Key: 0.41

Exercise: C50 lookup needed for C[n+]1cccc(NC(=O)c2ccc(NC(=O)C34CCC(C(=O)Nc5ccc(C(=O)Nc6ccc[n+](C)c6)cc5)(CC3)CC4)cc2)c1.Cc1ccc(S(=O)(=O)[O-])cc1.Cc1ccc(S(=O)(=O)[O-])cc1 , thanks.
Key: 11

Let's switch to this compound now.
Exercise: What value of C50 has been recorded for this entry: C[n+]1ccc(Nc2ccc(C(=O)Nc3ccc(Nc4cc[n+](C)c5cc(N)ccc45)cc3)c(N)c2)cc1.Cc1ccc(S(=O)(=O)[O-])cc1.Cc1ccc(S(=O)(=O)[O-])cc1
Key: 0.77
